- SUBJECT OF TEST: CDK9 (Homo sapiens, UniProt P50750)
- Construct: endogenous in cells; host or cells: MDA-MB-231
- Sequence (P50750 whole entry): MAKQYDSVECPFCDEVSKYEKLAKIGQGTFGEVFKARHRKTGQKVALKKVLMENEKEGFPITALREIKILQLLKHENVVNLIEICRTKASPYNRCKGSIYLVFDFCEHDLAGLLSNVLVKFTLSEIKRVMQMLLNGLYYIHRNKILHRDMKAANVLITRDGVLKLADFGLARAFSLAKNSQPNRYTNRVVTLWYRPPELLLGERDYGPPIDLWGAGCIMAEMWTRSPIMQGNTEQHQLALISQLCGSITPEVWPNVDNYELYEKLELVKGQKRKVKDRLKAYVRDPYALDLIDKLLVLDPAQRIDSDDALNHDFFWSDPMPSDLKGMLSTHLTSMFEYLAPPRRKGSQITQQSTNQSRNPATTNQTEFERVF
- TEST NAME: CDK protein degradation activity (Western blotting), CDK9
- Assay type: cell-based
- MEASUREMENT PARAMETERS: MDA-MB-231 cells, 1 μM, 16 hours, Western blot
MEASURED QUANTITY: Enzyme degradation CDK9 (% remaining) @ 1 μM (%)
Response body: numeric value in %, unit text excluded.

// known answers, use as guide
1. Cc1cccc(C(=O)NC2CC(n3cnc4c(NC5CCN(CCCN6CCN(c7cccc8c7C(=O)N([C@H]7CCC(=O)NC7=O)C8=O)CC6)CC5)ncnc43)C2)n1 (some centres unmarked): 0
2. O=C1CC[C@H](N2C(=O)c3ccc(N4CC(C(=O)N5CCC(CN6CCN(c7ccc(Nc8ncnc9c8ncn9C8CC(NC(=O)Cc9ccccc9)C8)cc7)CC6)CC5)C4)cc3C2=O)C(=O)N1 (some centres unmarked): 0

Task: Report measured Enzyme degradation CDK9 (% remaining) @ 1 μM; entry is Cc1cccc(C(=O)NC2CC(n3cnc4c(NC5CCN(C(=O)CC6CCN(C(=O)CNc7ccc8c(c7)C(=O)N([C@H]7CCC(=O)NC7=O)C8=O)CC6)CC5)ncnc43)C2)n1 (some centres unmarked)
Output: 0
